# study.target: Metabotropic glutamate receptor 4 (Homo sapiens, UniProt Q14833)
# Sequence (Q14833 whole entry): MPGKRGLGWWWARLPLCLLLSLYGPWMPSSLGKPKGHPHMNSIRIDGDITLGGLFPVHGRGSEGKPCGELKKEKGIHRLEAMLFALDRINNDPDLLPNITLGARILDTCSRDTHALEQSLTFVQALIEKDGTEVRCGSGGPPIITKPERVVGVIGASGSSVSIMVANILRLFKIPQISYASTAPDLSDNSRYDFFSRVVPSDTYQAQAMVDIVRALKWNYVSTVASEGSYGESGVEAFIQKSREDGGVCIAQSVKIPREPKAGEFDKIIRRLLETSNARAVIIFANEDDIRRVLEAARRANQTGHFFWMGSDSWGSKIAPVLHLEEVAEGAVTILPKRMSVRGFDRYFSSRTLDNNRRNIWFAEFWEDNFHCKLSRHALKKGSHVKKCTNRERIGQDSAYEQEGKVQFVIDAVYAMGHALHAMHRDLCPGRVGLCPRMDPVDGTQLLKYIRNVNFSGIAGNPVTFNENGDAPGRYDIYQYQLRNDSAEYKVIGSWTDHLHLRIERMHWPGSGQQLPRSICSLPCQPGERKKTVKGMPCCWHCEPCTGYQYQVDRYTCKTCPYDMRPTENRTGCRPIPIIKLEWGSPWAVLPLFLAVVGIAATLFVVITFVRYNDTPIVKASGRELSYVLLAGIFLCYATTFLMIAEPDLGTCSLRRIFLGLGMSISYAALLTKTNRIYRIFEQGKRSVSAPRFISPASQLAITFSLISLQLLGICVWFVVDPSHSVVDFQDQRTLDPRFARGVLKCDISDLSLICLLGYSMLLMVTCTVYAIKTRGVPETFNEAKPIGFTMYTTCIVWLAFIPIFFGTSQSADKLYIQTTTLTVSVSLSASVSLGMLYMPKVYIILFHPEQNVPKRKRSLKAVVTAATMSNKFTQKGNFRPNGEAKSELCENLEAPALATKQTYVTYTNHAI
# procedure.summary: Positive allosteric modulation of human mGluR4 by calcium mobilization assay relative to PHCCC
# Type: functional
Criterion: %max meeting or surpassing 50%. Met: t. Not met: f.

smiles.data	cat
Cc1ccoc1C(=O)Nc1ccc(N2C(=O)c3cccc(Cl)c3C2=O)c(F)c1	t
Cc1ccoc1C(=O)Nc1ccc(N2C(=O)c3cccc(C)c3C2=O)c(F)c1	t
Cc1ccoc1C(=O)Nc1cnc(N2C(=O)c3cccc(F)c3C2=O)nc1	f
Cc1cc(N2C(=O)c3ccccc3C2=O)ccc1NC(=O)c1occc1C	t
COc1cc(NC(=O)c2occc2C)ccc1N1C(=O)c2cccc(F)c2C1=O	t

**Q:** Say whether `Cc1ccoc1C(=O)Nc1ccc(N2C(=O)c3cccc(Cl)c3C2=O)cc1` shows %max of 50% or more.
**A:** f

====

Here, each record is paired with measured %max data.
# study.target: Metabotropic glutamate receptor 1 (Homo sapiens)
# procedure.summary: Positive allosteric modulation of human mGluR1 by calcium mobilization assay relative to control
# Type: functional
# Sequence (Q13255 19-1194 limits assumed): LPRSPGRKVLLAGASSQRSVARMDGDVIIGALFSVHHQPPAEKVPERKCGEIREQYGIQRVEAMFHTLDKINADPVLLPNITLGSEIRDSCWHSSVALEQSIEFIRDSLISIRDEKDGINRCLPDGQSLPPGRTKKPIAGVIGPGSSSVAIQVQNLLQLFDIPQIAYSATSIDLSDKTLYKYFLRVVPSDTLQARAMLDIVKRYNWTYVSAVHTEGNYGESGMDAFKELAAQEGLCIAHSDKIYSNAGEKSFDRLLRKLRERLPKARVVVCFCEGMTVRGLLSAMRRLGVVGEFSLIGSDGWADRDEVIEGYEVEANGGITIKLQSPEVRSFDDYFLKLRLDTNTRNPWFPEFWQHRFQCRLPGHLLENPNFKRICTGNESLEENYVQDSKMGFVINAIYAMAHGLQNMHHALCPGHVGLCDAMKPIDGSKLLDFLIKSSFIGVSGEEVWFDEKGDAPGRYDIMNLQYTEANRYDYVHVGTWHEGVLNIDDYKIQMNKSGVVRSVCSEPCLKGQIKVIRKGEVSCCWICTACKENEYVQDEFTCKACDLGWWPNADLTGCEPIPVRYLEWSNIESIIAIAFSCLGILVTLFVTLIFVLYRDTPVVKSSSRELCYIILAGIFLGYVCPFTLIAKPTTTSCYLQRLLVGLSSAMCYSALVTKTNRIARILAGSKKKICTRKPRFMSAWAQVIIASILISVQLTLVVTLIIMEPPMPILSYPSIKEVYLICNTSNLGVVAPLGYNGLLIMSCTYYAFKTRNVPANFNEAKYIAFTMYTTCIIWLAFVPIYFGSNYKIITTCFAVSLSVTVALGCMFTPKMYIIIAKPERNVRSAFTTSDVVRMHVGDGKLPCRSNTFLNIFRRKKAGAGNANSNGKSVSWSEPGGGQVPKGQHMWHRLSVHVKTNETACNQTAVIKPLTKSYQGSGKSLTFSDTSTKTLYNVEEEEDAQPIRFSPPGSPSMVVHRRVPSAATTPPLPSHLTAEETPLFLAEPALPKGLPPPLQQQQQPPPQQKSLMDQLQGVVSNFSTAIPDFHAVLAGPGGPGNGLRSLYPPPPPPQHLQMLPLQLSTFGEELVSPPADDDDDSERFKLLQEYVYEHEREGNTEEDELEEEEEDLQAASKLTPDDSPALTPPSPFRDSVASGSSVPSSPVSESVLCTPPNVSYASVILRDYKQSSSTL
# number only, unit % dropped from output

Sample records with %max:
smiles.data	unit.abbreviation	quantitative.readout
COc1cc(NC(=O)c2occc2C)ccc1N1C(=O)c2cccc(F)c2C1=O	%	103
Cc1ccoc1C(=O)Nc1ccc(N2C(=O)c3ccccc3C2=O)cc1F	%	84
COc1cc(NC(=O)c2occc2C)ccc1N1C(=O)c2ccccc2C1=O	%	96
Cc1ccoc1C(=O)Nc1ccc(N2C(=O)c3cccc(F)c3C2=O)c(C(F)(F)F)c1	%	110

**Q:** Write down the reported %max (system: Metabotropic glutamate receptor 1 (Homo sapiens)) of `Cc1ccoc1C(=O)Nc1ccc(N2C(=O)c3ccccc3C2=O)c(F)c1`
**A:** 101

====

# study.target: Metabotropic glutamate receptor 1 (Homo sapiens, UniProt Q13255)
# procedure.summary: Positive allosteric modulation of human mGluR1 by calcium mobilization assay
# Format: functional
# Sequence (Q13255 whole entry): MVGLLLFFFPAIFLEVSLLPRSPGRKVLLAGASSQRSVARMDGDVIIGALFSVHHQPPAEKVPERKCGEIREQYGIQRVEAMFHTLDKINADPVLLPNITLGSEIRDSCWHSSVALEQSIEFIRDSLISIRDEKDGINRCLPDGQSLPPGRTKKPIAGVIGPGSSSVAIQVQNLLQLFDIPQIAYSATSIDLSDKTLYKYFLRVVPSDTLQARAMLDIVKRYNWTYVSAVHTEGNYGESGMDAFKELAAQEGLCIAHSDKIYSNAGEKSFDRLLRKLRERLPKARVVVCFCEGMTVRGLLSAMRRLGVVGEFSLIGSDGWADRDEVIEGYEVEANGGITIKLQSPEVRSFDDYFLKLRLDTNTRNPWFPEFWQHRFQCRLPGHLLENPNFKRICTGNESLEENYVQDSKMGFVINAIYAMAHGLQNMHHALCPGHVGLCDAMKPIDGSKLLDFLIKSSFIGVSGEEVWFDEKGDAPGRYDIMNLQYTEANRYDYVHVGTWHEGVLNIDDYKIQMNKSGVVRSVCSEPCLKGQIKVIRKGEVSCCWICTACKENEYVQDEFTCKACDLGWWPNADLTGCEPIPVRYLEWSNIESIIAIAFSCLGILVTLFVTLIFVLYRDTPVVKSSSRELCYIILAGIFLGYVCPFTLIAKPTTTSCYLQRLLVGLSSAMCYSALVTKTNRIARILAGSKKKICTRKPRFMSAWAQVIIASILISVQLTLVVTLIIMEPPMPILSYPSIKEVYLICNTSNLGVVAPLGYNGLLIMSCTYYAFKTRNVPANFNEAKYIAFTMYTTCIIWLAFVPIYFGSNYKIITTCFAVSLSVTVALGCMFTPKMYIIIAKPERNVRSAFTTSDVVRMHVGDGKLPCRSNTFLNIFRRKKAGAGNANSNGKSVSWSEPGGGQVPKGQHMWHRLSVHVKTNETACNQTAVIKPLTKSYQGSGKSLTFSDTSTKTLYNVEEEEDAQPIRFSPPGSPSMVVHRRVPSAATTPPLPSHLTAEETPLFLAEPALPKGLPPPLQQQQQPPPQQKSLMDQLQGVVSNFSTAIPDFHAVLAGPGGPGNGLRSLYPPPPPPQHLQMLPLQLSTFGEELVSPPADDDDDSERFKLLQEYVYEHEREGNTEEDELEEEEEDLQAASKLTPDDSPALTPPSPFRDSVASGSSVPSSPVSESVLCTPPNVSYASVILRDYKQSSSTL
result.type: pEC50
The scale used: pEC50 is minus the common logarithm of the concentration in molar units.

Worked set:
smiles.data	pEC50
COc1cc(NC(=O)c2occc2C)ccc1N1C(=O)c2cccc(Cl)c2C1=O	7.74
Cc1ccoc1C(=O)Nc1ccc(N2C(=O)c3cccc(Cl)c3C2=O)c2ccccc12	7.65

# evaluate next
**Q:** Supply measured pEC50 of `Cc1cc(NC(=O)c2occc2C)ccc1N1C(=O)c2cccc(C)c2C1=O` in your reply.
**A:** 7.67

====

This section presents molecules with their documented %max values.
# study.target: UniProt Q14833
# procedure.summary: Positive allosteric modulation of human mGluR4 by calcium mobilization assay relative to PHCCC
# Assay type: functional
Your answer should be a plain number; it is taken to be in %.

Please review the entries below; each comes with its answer.
smiles.data	quantitative.readout
Cc1ccoc1C(=O)Nc1ccc(N2C(=O)c3cccc(C)c3C2=O)nc1	100
Cc1ccoc1C(=O)Nc1ccc(N2C(=O)c3cccc(C)c3C2=O)c2ccccc12	103

**Q:** Specify %max for `Cc1ccoc1C(=O)Nc1ccc(N2C(=O)c3cccc(C)c3C2=O)c(C(F)(F)F)c1` and stop.
**A:** 109

**Q:** Give %max for the following molecule: `Cc1cc(NC(=O)c2occc2C)ccc1N1C(=O)c2cccc(C)c2C1=O`
**A:** 122

**Q:** Respond only with %max recorded for `COc1cc(NC(=O)c2occc2C)ccc1N1C(=O)c2cccc(Cl)c2C1=O`
**A:** 103

====

# study.target: Metabotropic glutamate receptor 1 (Homo sapiens, UniProt Q13255)
# procedure.summary: Positive allosteric modulation of human mGluR1 by calcium mobilization assay
# Format: functional
# condition.details: read-out: EC50
result.type: EC50

smiles.data	result
Cc1ccoc1C(=O)Nc1ccc(N2C(=O)c3ccccc3C2=O)cn1	> 10 µM
Cc1ccoc1C(=O)Nc1ncc(N2C(=O)c3ccccc3C2=O)cn1	> 10 µM

# input for lookup
**Q:** // fetch EC50 given entry `Cc1ccoc1C(=O)Nc1ccc(N2C(=O)c3ccccc3C2=O)cc1C(F)(F)F`
**A:** > 10 µM

====

Each entry below lists one item and its recorded Ratio EC50 value.
# Organism: Homo sapiens
# procedure.summary: Selectivity ratio of EC50 for human mGluR4 to EC50 for human mGluR1
Could you respond with only the numeric value?

Worked cases, Ratio EC50 given:
smiles.data	Ratio EC50
Cc1ccoc1C(=O)Nc1ccc(N2C(=O)c3cccc(Cl)c3C2=O)c(C(F)(F)F)c1	23.3
Cc1cc(NC(=O)c2occc2C)ccc1N1C(=O)c2cccc(Cl)c2C1=O	20.5

**Q:** Return value of Ratio EC50 for input `Cc1cc(NC(=O)c2occc2C)ccc1N1C(=O)c2cccc(F)c2C1=O` , no commentary.
**A:** 22.4

====

# study.target: Metabotropic glutamate receptor 4 (Homo sapiens)
# procedure.summary: Positive allosteric modulation of human mGluR4 by calcium mobilization assay
Threshold-based label: EC50 under 1000 nM gives class 1, EC50 not under 1000 nM gives class 0.

smiles.data	cat
Cc1ccoc1C(=O)Nc1ncc(N2C(=O)c3ccccc3C2=O)cn1	class 0
Cc1ccoc1C(=O)Nc1ccc(N2C(=O)c3ccccc3C2=O)cc1	class 0

**Q:** is_below(EC50, 1000 nM) for `Cc1ccoc1C(=O)Nc1ccc(N2C(=O)c3cccc(C)c3C2=O)c(C(F)(F)F)c1` ?
**A:** class 0

**Q:** Please check: EC50 for `Cc1ccoc1C(=O)Nc1ccc(N2C(=O)c3cccc(Cl)c3C2=O)cc1` , strictly under 1000 nM or not?
**A:** class 1

====

Entries annotated with measured %max
# study.target: Metabotropic glutamate receptor 4 (Homo sapiens, UniProt Q14833)
# procedure.summary: Positive allosteric modulation of human mGluR4 by calcium mobilization assay relative to PHCCC
# Format: functional
The number alone won't do; follow it with the unit.

Worked examples follow.
smiles.data	study.target	%max
Cc1ccoc1C(=O)Nc1ccc(N2C(=O)c3cccc(Cl)c3C2=O)c(C(F)(F)F)c1	Metabotropic glutamate receptor 4 (Homo sapiens, UniProt Q14833)	120%
Cc1ccoc1C(=O)Nc1ccc(N2C(=O)c3cccc(C)c3C2=O)cc1	Metabotropic glutamate receptor 4 (Homo sapiens, UniProt Q14833)	62%

**Q:** Note down %max recorded for `Cc1ccoc1C(=O)Nc1ccc(N2C(=O)c3cccc(F)c3C2=O)c(F)c1`
**A:** 78%

====

# study.target: Metabotropic glutamate receptor 4 (Homo sapiens, UniProt Q14833)
# procedure.summary: Positive allosteric modulation of human mGluR4 by calcium mobilization assay relative to PHCCC
# Format: functional
result.type: %max (%)
Numbers only here, please. The scale is %.

Solved entries (count: 4):
smiles.data	%max, %
COc1cc(NC(=O)c2occc2C)ccc1N1C(=O)c2ccccc2C1=O	50
Cc1ccoc1C(=O)Nc1ccc(N2C(=O)c3cccc(F)c3C2=O)nc1	19
Cc1cc(NC(=O)c2occc2C)ccc1N1C(=O)c2cccc(F)c2C1=O	86
Cc1ccoc1C(=O)Nc1cnc(N2C(=O)c3cccc(C)c3C2=O)nc1	104

With those in mind, consider the next compound.
**Q:** Provide measured %max value, entry: `COc1cc(NC(=O)c2occc2C)ccc1N1C(=O)c2cccc(C)c2C1=O`
**A:** 107

====

Listed here are compounds together with their documented %max.
# study.target: Metabotropic glutamate receptor 1 (Homo sapiens)
# procedure.summary: Positive allosteric modulation of human mGluR1 by calcium mobilization assay relative to control
# Assay type: functional
Number only, in %; omit the unit.

For orientation, consider the following solved cases.
smiles.data	unit.abbreviation	quantitative.readout
Cc1ccoc1C(=O)Nc1ccc(N2C(=O)c3cccc(Cl)c3C2=O)cc1	%	101
COc1cc(N2C(=O)c3ccccc3C2=O)ccc1NC(=O)c1occc1C	%	80
Cc1ccoc1C(=O)Nc1ccc(N2C(=O)c3ccccc3C2=O)cc1Cl	%	68

**Q:** For the compound `Cc1ccoc1C(=O)Nc1ccc(N2C(=O)c3cccc(F)c3C2=O)c(F)c1` , give its measured %max value.
**A:** 104

**Q:** Quick one: give measured %max for `Cc1ccoc1C(=O)Nc1ccc(N2C(=O)c3cccc(Cl)c3C2=O)c2ccccc12`
**A:** 92

====

# study.target: Metabotropic glutamate receptor 4 (Homo sapiens, UniProt Q14833)
# procedure.summary: Positive allosteric modulation of human mGluR4 by calcium mobilization assay
Simple rule here: EC50 less than 800 nM is true (1), otherwise false (0).

The following molecules have reported results that may help.
smiles.data	cat
Cc1ccoc1C(=O)Nc1ccc(N2C(=O)c3ccccc3C2=O)c2ccccc12	true (1)
Cc1ccoc1C(=O)Nc1ccc(N2C(=O)c3ccccc3C2=O)c(F)c1	true (1)
Cc1ccoc1C(=O)Nc1ccc(N2C(=O)c3cccc(Cl)c3C2=O)c2ccccc12	true (1)
Cc1ccoc1C(=O)Nc1ccc(N2C(=O)c3ccccc3C2=O)cc1F	false (0)
Cc1ccoc1C(=O)Nc1cnc(N2C(=O)c3cccc(Cl)c3C2=O)nc1	false (0)
Cc1ccoc1C(=O)Nc1ccc(N2C(=O)c3ccccc3C2=O)c(C(F)(F)F)c1	false (0)

**Q:** # check: EC50 < 800 nM for `COc1cc(NC(=O)c2occc2C)ccc1N1C(=O)c2cccc(Cl)c2C1=O`
**A:** true (1)

**Q:** Dear colleague, could you confirm whether EC50 of `Cc1cc(NC(=O)c2occc2C)ccc1N1C(=O)c2cccc(C)c2C1=O` falls below 800 nM? Thanks.
**A:** true (1)

Origin of values: ChEMBL document CHEMBL3632577
